Quick reference for Percent Inhibition of ligand binding Adrenergic α2B among some compounds
# TGT: human recombinant adrenergic α2B receptor (Homo sapiens)
# Construct: expressed in transfected cells; host or cells: Chinese hamster ovary (CHO-K1) cells
# Sequence (P18089 whole entry): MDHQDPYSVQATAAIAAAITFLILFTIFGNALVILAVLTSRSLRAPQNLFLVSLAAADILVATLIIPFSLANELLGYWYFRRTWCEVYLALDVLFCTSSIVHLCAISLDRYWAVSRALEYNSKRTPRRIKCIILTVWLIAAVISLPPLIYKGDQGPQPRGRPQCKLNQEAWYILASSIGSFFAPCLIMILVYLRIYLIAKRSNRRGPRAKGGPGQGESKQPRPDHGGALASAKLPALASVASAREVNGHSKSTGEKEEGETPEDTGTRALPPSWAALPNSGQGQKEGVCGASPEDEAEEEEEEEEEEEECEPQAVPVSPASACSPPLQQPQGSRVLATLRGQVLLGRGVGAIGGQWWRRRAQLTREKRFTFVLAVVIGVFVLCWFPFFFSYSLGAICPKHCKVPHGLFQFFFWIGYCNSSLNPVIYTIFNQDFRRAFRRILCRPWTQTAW
# TEST: Adrenergic α2B radioligand binding ([3H]Rauwolscine)
# PROTOCOL_CONDITIONS: 0.1 μM ligand conc.
READOUT_TYPE: Percent Inhibition of ligand binding Adrenergic α2B (%)

INSERT INTO measurements (compound, number) VALUES
  ('O=C(Cn1c2c(c3cccnc31)CN1CCCC1C2)N1CCCCC1 (stereo not shown)', 40),
  ('Cc1cnc2c(c1)c1c(n2CC(=O)N2CCCCC2)CCN2CCCC12 (stereo not shown)', 14),
  ('Cc1cnc2c(c1)c1c(n2CC(=O)N2CCCCC2)CC2CCCN2C1 (stereo not shown)', 3),
  ('O=C(Cn1c2c(c3cccnc31)C1CCCN1CC2)N1CCCCC1 (stereo not shown)', 30);
